tested on: NCI/ADR-RES complex spheroid viability; test: Anticancer human tumor NCI/ADR-RES cell line growth inhibition; conditions: second compound 0.316 µM; first compound 0.03 µM; stronger effect = lower value;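 also: spheroids exposed to compounds for 7 days; 100% = DMSO vehicle treated spheroids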
metric: viability, T/C (%)
Give bare numbers, in %.

| molecule | viability, T/C / % |
| --- | --- |
| Nc1ncn(C2CC(O)C(CO)S2)c(=O)n1 (stereo unspecified) + NC1CCC(NC2CC2c2ccccc2)CC1 | 34 |
| Nc1ncn(C2CC(O)C(CO)S2)c(=O)n1 (stereo unspecified) + NC1CC1c1ccc(-c2cccc(O)c2)cc1 | 30.6 |

Please state, for each entry, its recorded viability, T/C.
1. Nc1ccn(C2OC(CO)C(O)C2(F)F)c(=O)n1 (stereo unspecified) + NC1CC1c1ccc(-c2cccc(O)c2)cc1
2. Nc1ccccc1NC(=O)c1ccc(CNC(=O)OCc2cccnc2)cc1 + NC1CCC(NC2CC2c2ccccc2)CC1
3. NS(=O)(=O)OCC1CC(n2ccc3c(NC4CCc5ccccc54)ncnc32)CC1O (stereo unspecified) + NC1CCC(NC2CC2c2ccccc2)CC1

*A*
1: 1.81; 2: 98.6; 3: 92.4

For each listed entry, give its viability, T/C.
1. O=C(C=Cc1cccc(S(=O)(=O)Nc2ccccc2)c1)NO + NC1CCC(NC2CC2c2ccccc2)CC1
2. NS(=O)(=O)OCC1CC(n2ccc3c(NC4CCc5ccccc54)ncnc32)CC1O (stereo unspecified) + NC1CC1c1ccc(-c2cccc(O)c2)cc1
3. CCc1c2c(nc3ccc(O)cc13)-c1cc3c(c(=O)n1C2)COC(=O)[C@]3(O)CC + NC1CC1c1ccc(-c2cccc(O)c2)cc1
4. O=C(C=Cc1cccc(S(=O)(=O)Nc2ccccc2)c1)NO + NC1CC1c1ccc(-c2cccc(O)c2)cc1

*A*
1: 85.2; 2: 100; 3: 0.21; 4: 86.8

Answer for every listed entry: what is its viability, T/C? The entries follow.
1. CCN(c1cc(-c2ccc(CN3CCOCC3)cc2)cc(C(=O)NCc2c(C)cc(C)[nH]c2=O)c1C)C1CCOCC1 + NC1CCC(NC2CC2c2ccccc2)CC1
2. Nc1ccn(C2OC(CO)C(O)C2(F)F)c(=O)n1 (stereo unspecified) + NC1CCC(NC2CC2c2ccccc2)CC1
3. Nc1ccccc1NC(=O)c1ccc(CNC(=O)OCc2cccnc2)cc1 + NC1CC1c1ccc(-c2cccc(O)c2)cc1
4. CCN(c1cc(-c2ccc(CN3CCOCC3)cc2)cc(C(=O)NCc2c(C)cc(C)[nH]c2=O)c1C)C1CCOCC1 + NC1CC1c1ccc(-c2cccc(O)c2)cc1
5. COc1cc(C2c3cc4c(cc3C(OC3OC5COC(C)OC5C(O)C3O)C3COC(=O)C23)OCO4)cc(OC)c1O (stereo unspecified) + NC1CCC(NC2CC2c2ccccc2)CC1
6. COc1cc(C2c3cc4c(cc3C(OC3OC5COC(C)OC5C(O)C3O)C3COC(=O)C23)OCO4)cc(OC)c1O (stereo unspecified) + NC1CC1c1ccc(-c2cccc(O)c2)cc1
7. CCc1c2c(nc3ccc(O)cc13)-c1cc3c(c(=O)n1C2)COC(=O)[C@]3(O)CC + NC1CCC(NC2CC2c2ccccc2)CC1

*A*
97.9
3.17
95.9
102
101
104
2.53

* * *

system: NCI/ADR-RES complex spheroid viability; experiment: Anticancer human tumor NCI/ADR-RES cell line growth inhibition; settings: second compound 0.316 µM; first compound 0.001 µM; stronger effect = lower value;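 also: spheroids exposed to compounds for 7 days; 100% = DMSO vehicle treated spheroids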
metric: viability, T/C (%)
Give bare numbers, in %.

Go through the list and state viability, T/C for each entry.
1. CC(C)CC(NC(=O)C(Cc1ccccc1)NC(=O)c1cnccn1)B(O)O (centres undefined) + NC1CC1c1ccc(-c2cccc(O)c2)cc1
2. CC(C)CC(NC(=O)CNC(=O)c1cc(Cl)ccc1Cl)B1OC(=O)CC(CC(=O)O)(C(=O)O)O1 (centres undefined) + NC1CCC(NC2CC2c2ccccc2)CC1
3. Cn1ncnc1C1c2n[nH]c(=O)c3cc(F)cc(c23)NC1c1ccc(F)cc1 (centres undefined) + NC1CCC(NC2CC2c2ccccc2)CC1
4. CC(C)CC(NC(=O)C(Cc1ccccc1)NC(=O)c1cnccn1)B(O)O (centres undefined) + NC1CCC(NC2CC2c2ccccc2)CC1

*A*
103
109
106
101
